# assay-method-text: qHTS Assay for Lipid Storage Modulators in Drosophila S3 Cells
# test-context: BODIPY lipid droplet fluorescence, 18-24 h, cells fed with added oleic acid; series mostly up to 46.1 µM
The whole screen tested about 320,000 compounds, of which about 2,100 (0.66%) were called active. Another 53% or so got no clear call; they are omitted. Calls come from the whole dose curve; as a rule, active = well fitted inhibition curve with a large enough effect in the signal ratio, with a control signal flat (not every such curve was filed as active); inconclusive = small, poorly fitted or top-dose-only effect, or effect the other way, or a change in a side signal; inactive = flat fitted curve, though single readings scatter; the % refers to the signal ratio. The sample as a whole holds a higher share of actives than the screen did.
Classes used: 1.0 for active, 0.0 for inactive

compound | discrete-label
Cc1cc(C)cc(C(=O)OCC(=O)N2CCCCCC2)c1 | 0.0
COc1ccc(CCC(=O)OCC(=O)Nc2ccccc2)cc1 | 0.0
O=C(NCCOc1nc(N2CCCCC2)nc(N2CCOCC2)n1)Nc1ccccc1 | 1.0
Nc1c(O)ccc2c1C(=O)c1ccccc1C2=O | 0.0
O=C(NCCOc1nc(N2CCCCC2)nc(N2CCCCC2)n1)Nc1ccccc1 | 0.0
CCCn1c(SCCN2CCOCC2)nc2c1c(=O)n(C)c(=O)n2C | 0.0
COc1cc(OC)c2ccc(=O)oc2c1C(CCN1CCCC1)c1ccc(N(C)C)cc1 (stereo unspecified) | 0.0
Cc1cc(C)cc(Oc2ccc(C(F)(F)F)cc2C#N)c1 | 0.0
O=C1C2CC=C(Cl)CC2C(=O)N1CCC[n+]1cccc2ccccc21 (stereo unspecified) | 0.0
O=C(NCCOc1nc(N2CCOCC2)nc(N2CCOCC2)n1)Nc1ccccc1 | 0.0
COC(=O)c1ccc(-c2c(-c3ccccc3)ncc3cc(F)ccc23)cc1 | 0.0

----------
# assay-method-text: qHTS Assay for Lipid Storage Modulators in Drosophila S3 Cells;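 for cell number change: cells counted by Cell Tracker Red CMTPX staining in the red channel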
# test-context: BODIPY lipid droplet fluorescence, 18-24 h, cells fed with added oleic acid; measured here: cell count max response
In all, about 320,000 compounds went through this assay and about 2,100 (0.66%) were called active. Roughly 53% stayed inconclusive and do not appear here. What follows is part of a selection rich in actives, with near analogues and random picks from the rest.

molecule | cell number change / %
COc1ccc(C(=O)NNC(=S)NC(=O)c2ccco2)cc1 | 1.44
O=C(CCC1CCCC1)Nc1ccccc1-c1ccccc1 | -0.161
CCN(CC)CCCNc1oc(-c2ccc(OC)c(OC)c2)nc1C#N | 24.5
Cc1nc2ccc(NC(=S)NC(C)C)cc2nc1C | -1.16
CCCC(=O)CN1C(=O)C2(OCCO2)c2ccccc21 | -15.8
COc1ccc(CCN(C)CC(O)COC(c2ccc(F)cc2)c2ccc(F)cc2)cc1OC (stereo unspecified) | -8.84
CCOC(=O)CN1C(=O)C2(OCCCO2)c2cc(Br)ccc21 | -7.87
CC(C)(C)NC(=O)Cn1ccc(=N)c2ccccc21 | -1.29
CCCC(=O)Nc1ccc(Cl)c(NC(=O)c2ccc([N+](=O)[O-])cc2Cl)c1 | 3.62
CCn1c(=O)c2cc(C(=O)NCC(OC)OC)sc2c2ccccc21 | 25.4
CS(=O)(=O)c1ccc(S(=O)CC(=O)OCc2ccccc2)c([N+](=O)[O-])c1 (stereo unspecified) | -65.2

----------
Property: cell number change; scope: individual compounds
# assay-method-text: qHTS Assay for Lipid Storage Modulators in Drosophila S3 Cells;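 for cell number change: cells counted by Cell Tracker Red CMTPX staining in the red channel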
# test-context: BODIPY lipid droplet fluorescence, 18-24 h, cells fed with added oleic acid; measured here: cell count max response
Screen size: about 320,000 compounds; about 2,100 (0.66%) were called active. Inconclusive results (about 53%) are left out. The list comes from a sample in which actives are over-represented; it also holds close analogues and randomly drawn compounds.

compound | measurement-unit | cell number change
Cc1cccc(-n2cc(CN3CCCN(C=O)CC3)c(-c3cccc(F)c3)n2)c1 | % | -4.39
CC1CCN(c2ccc(NC(=O)c3cccnc3)cc2)CC1 | % | -20.1
COc1ccc(CNC(=O)C(C)n2nc(C)c3c(C)n(-c4ccccc4)nc3c2=O)c(OC)c1 (stereo not given) | % | 1.47
COc1ccccc1CNC(=O)C(C)n1nc(C)c2c(C)n(-c3ccccc3)nc2c1=O (stereo not given) | % | -4.13
COc1ccc(OC)c(CNC(=O)C(C)n2nc(C)c3c(C)n(-c4ccccc4)nc3c2=O)c1 (stereo not given) | % | -28
